Listing of recorded activation by entry.
# study.system: Androgen receptor (Homo sapiens) (UniProt P10275)
# Sequence (P10275 whole entry, looked up): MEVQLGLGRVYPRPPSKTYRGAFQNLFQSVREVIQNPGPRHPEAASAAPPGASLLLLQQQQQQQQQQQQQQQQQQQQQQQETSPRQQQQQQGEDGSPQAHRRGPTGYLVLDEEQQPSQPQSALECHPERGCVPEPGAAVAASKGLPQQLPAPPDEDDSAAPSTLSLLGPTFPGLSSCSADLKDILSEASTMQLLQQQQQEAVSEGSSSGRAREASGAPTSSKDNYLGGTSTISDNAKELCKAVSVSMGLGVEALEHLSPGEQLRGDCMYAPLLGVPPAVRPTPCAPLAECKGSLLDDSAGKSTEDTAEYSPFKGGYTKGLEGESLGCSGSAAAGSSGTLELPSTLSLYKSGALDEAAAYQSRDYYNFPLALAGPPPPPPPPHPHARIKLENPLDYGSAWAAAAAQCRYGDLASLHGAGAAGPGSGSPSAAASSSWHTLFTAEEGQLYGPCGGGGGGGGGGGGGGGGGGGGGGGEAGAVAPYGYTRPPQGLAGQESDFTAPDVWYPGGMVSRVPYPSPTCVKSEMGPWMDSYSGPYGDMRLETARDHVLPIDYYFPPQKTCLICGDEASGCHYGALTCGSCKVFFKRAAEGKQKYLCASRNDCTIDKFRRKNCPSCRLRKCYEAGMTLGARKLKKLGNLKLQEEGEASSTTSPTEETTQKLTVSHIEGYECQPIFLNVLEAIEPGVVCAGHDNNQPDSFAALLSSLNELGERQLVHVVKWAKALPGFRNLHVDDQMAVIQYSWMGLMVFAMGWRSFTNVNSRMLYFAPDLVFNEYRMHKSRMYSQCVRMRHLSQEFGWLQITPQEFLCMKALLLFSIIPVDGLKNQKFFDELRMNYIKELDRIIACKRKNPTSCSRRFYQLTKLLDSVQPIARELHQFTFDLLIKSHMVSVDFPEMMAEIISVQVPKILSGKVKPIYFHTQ
# protocol.description: qHTS assay for small molecule agonists of androgen receptor signaling (AID 588515); note: % is set by controls: 0 for no effect and ±100 for the full control effect
# measurement.conditions: AR-UAS-bla HEK293, beta-lactamase ratio, agonist 16 h; stronger effect = higher value
Records with an inconclusive call do not appear.

# compound, unit.of.measurement, activation
data = [
    ("N#CC(Cl)(Cl)Cl", "%", -3.49),
    ("FC(Cl)(Cl)Cl", "%", 5.32),
    ("Nc1c(Br)cc([N+](=O)[O-])cc1[N+](=O)[O-]", "%", -3.78),
    ("CCCCNC(=O)n1c(NC(=O)OC)nc2ccccc21", "%", -8.05),
    ("Cc1cc(N=Nc2ccccc2C)ccc1N", "%", -4.45),
    ("CCCCC(CC)COC(=O)c1ccc(C(=O)OCC(CC)CCCC)c(C(=O)OCC(CC)CCCC)c1 (stereo not given)", "%", -4.73),
    ("Cc1cnc[nH]1", "%", -7.55),
    ("CN(C)c1ccc(N)cc1", "%", -5.02),
    ("[N-]=[N+]=[N-]", "%", -1.14),
    ("Nc1ccc([N+](=O)[O-])cc1[N+](=O)[O-]", "%", -5.64),
    ("BrCC(Br)C1CCC(Br)C(Br)C1 (stereo not given)", "%", 1.31),
    ("C=C(C)CCl", "%", 8.69),
    ("O=[N+]([O-])c1cccc2c([N+](=O)[O-])cccc12", "%", 1.43),
    ("CC(=O)NNc1ccccc1", "%", 7.34),
    ("CCCCCC[N+](=O)[O-]", "%", 8.93),
]
